Tested On: hBTK (full-length BTK, 6HIS-tag cleaved) (Homo sapiens (Human))
Sequence (Q06187 whole entry): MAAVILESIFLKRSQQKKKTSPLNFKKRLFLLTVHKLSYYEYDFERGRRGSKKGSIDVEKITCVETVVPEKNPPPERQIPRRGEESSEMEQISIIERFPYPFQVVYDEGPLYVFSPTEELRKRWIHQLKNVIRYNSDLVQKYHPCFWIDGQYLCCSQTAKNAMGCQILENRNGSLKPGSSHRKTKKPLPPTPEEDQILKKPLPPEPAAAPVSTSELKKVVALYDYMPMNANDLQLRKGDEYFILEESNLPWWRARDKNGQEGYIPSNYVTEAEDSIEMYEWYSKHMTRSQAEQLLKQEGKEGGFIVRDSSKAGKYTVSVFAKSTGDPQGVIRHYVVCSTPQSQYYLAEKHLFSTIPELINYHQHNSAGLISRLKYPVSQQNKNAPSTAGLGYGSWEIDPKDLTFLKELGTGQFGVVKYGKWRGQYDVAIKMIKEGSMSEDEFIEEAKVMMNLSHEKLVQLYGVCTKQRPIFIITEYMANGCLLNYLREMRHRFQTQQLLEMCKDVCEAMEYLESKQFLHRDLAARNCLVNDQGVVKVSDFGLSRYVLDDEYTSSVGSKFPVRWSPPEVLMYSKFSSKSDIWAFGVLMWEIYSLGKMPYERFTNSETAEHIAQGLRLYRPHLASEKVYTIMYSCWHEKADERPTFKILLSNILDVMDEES
Method Description: BTK enzymatic activity, IMAP-FP assay (Assay Method B)
Format: biochemical
Test Settings: IMAP-FP, 1.05 nM hBTK, 5 μM ATP; class 100-1000 is given as ≧100 nM-<1 μM; read-out: IC50 Btk activity values - Assay Method B
Quantity Name: IC50

Answered cases to consult:
| Molecule | IC50 |
| --- | --- |
| COc1cc(C(=O)Nc2cc(C(F)(F)F)ccn2)ccc1-c1nc([C@@H]2CC[C@H](C)N(C(=O)C3(C)COC3)C2)n2ccnc(N)c12 | < 0.01 µM |
| CC1(C(=O)N2C[C@H](c3nc(-c4ccc(C(=O)Nc5cc(C(F)(F)F)ccn5)cc4)c4c(N)nccn34)CC(F)(F)C2)COC1 (stereo in doubt) | < 0.01 µM |

API: the following record is the query input.
CCN1CCO[C@@H](c2nc(-c3ccc(C(=O)Nc4cc(C(F)(F)F)ccn4)cc3)c3c(N)nccn23)C1 yielded IC50 of 0.01 to 0.1 µM

The measurements presented in this section are drawn from patent US9718828B2.
